System: ipsdienol A-neuron OSN class
Run Description: net action potential response of A-neuron (blank-subtracted) (spikes/s (Hz)); higher = stronger excitation
Condition Context: 10 µg on filter paper; neuron: A neuron (large spike amplitude)
Decision: net action potential response compared against 1; not below it gives yes (1), below it gives no (0).

Solved entries:
Quick check, net action potential response >= 1? CC1=CCC2CC1C2(C)C (stereo not drawn) [(-)-α-Pinene]
yes (1)

Quick check, net action potential response >= 1? CC[C@H]1O[C@]2(C)CCC[C@H]1O2 (racemic) [(±)-exo-Brevicomin]
no (0)

Quick check, net action potential response >= 1? C=C(C)C1CC=C(C)C(=O)C1 (racemic) [(±)-Carvone]
no (0)

Quick check, net action potential response >= 1? CC(=O)OCCc1ccccc1 [2-Phenethyl acetate]
no (0)

Quick check, net action potential response >= 1? CC1=CC(=O)[C@@H]2C[C@H]1C2(C)C [(-)-Verbenone]
yes (1)

Further cases:
Quick check, net action potential response >= 1? C[C@H]1C(=O)C[C@H]2C[C@@H]1C2(C)C [(-)-Pinocamphone]
no (0)

Quick check, net action potential response >= 1? CC1=C[C@@H](O)[C@H]2C[C@@H]1C2(C)C [(-)-trans-Verbenol]
no (0)

Quick check, net action potential response >= 1? `CC12CCC(CC1)C(C)(C)O2`
no (0)

Quick check, net action potential response >= 1? CCC1CCC2(CCCO2)O1 (racemic) [(±)-Chalcogran]
yes (1)

---

Test system: lanierone-responsive B-neuron OSN class (ItypOR36)
Run Description: net action potential response of lanierone B-neuron (blank-subtracted) (spikes/s (Hz)); higher = stronger excitation
Condition Context: co-localized A-neuron class: (+)-trans-4-thujanol; 10 µg on filter paper; neuron: B neuron (small spike amplitude)
Attribute Measured: net action potential response
API note: the answer field is a bare number with no unit suffix.

Would you please look over these solved cases?
net action potential response in this record for CCCCCC(O)CC (racemic) [(±)-3-Octanol] : -4

net action potential response in this record for COc1ccc(C)cc1OC [3,4-Dimethoxytoluene] : -1.5

net action potential response in this record for c1ccc2c(c1)CCO2 [2,3-Dihydrobenzofuran] : 2.5

net action potential response in this record for CCc1ccc(O)c(OC)c1 [4-Ethylguaiacol] : 4

net action potential response in this record for C=CCc1ccc(OC)c(OC)c1 [Eugenol methyl ether] : -2

Further cases:
net action potential response in this record for C=CC(=C)CC(O)C=C(C)C (racemic) [(±)-Ipsdienol] : 0

net action potential response in this record for CCC/C=C/C=O [(E)-hex-2-enal] : -1.5

net action potential response in this record for C=CC(=C)C[C@@H](O)CC(C)C (racemic) [(±)-Ipsenol] : 0.5

net action potential response in this record for C[C@H]1C(=O)C[C@H]2C[C@@H]1C2(C)C [(-)-Pinocamphone] : 1

net action potential response in this record for C=C1CCC2CC1C2(C)C (stereo not drawn) [(-)-β-Pinene] : -3

net action potential response in this record for `CC/C=C\CCO` : -4.5

net action potential response in this record for C=Cc1ccc(OC)cc1 [4-Vinyl anisole] : -2.5

net action potential response in this record for C=CC(C)(C)O [2-Methyl-3-buten-2-ol] : -3.5

net action potential response in this record for CC1(C)C2CC=C(CO)C1C2 (racemic) [(±)-Myrtenol] : 0

net action potential response in this record for CC1=CCC2CC1C2(C)C (stereo not drawn) [(-)-α-Pinene] : 0

net action potential response in this record for CC[C@H]1O[C@]2(C)CCC[C@H]1O2 (racemic) [(±)-exo-Brevicomin] : -1

net action potential response in this record for CC12CCC(CC1)C(C)(C)O2 [1,8-Cineole] : -1
